method.summary: self-splicing fitness, log relative to wild type (ln ratio); higher = more splicing; Tetrahymena group I intron in knt gene, E. coli kanamycin selection, DiMSum; sequences stand for … in CUCUCU…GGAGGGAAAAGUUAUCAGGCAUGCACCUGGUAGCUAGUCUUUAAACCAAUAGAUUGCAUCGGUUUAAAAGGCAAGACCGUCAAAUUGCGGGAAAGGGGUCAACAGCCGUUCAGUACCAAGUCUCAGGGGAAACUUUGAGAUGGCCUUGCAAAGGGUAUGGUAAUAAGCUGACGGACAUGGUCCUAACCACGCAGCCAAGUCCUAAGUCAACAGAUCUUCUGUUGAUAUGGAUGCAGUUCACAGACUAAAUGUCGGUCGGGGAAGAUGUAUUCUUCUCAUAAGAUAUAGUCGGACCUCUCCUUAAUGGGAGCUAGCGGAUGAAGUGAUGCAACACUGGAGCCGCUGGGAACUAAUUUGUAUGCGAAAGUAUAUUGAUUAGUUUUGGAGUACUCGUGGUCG;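 note: selection with 25 µg/mL kanamycin versus none on LB agar overnight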
test.settings: 30 °C
attribute.measured: self-splicing fitness (ln)
Answer using only a numeral; do not append any unit.

query: self-splicing fitness (ln) lookup needed for `CUGGAGCAAUAUUACGUCUC` , thanks.
result: -2.68

query: If you can, please state the reported self-splicing fitness (ln) value of `CAUUAGCAAUAUUACGUGAC` .
result: -3.18

query: Value lookup for self-splicing fitness (ln); key = `UUCGAGCAAUAUUACGUGGU`
result: -3.49

query: If you can, please state the reported self-splicing fitness (ln) value of `UACGAGCAAUAUUACGACGC` .
result: -3

query: Need self-splicing fitness (ln) of `AACGAGCAAUAUUACGAUAC` , thanks.
result: -2.52

query: Param item = `UGUCAGCAAUAUUACGGGAU` ; retrieve measured self-splicing fitness (ln).
result: -3.26

query: Consider the sequence shown here: `GAACAGCAAUAUUACGUAUC` What is its recorded self-splicing fitness (ln)?
result: -2.83

query: Look up self-splicing fitness (ln) for this sequence: `CUACAGCAAUAUUACGGUUG`
result: -1.78

query: I have this sequence here, `GGUAAGCAAUAUUACGGAGA` , and I need its recorded self-splicing fitness (ln).
result: -3.47

query: GET /values?readout=self-splicing fitness (ln)&item= `UAGCAGCAAUAUUACGGGAG`
result: -2.58

query: For `AAUGAGCAAUAUUACGAAAA` , what is its reported self-splicing fitness (ln)?
result: -3.58

query: For the sequence `GCUUAGCAAUAUUACGCGGU` , what self-splicing fitness (ln) is on record?
result: -3.52

query: Suppose we examine the sequence `CUGUAGCAAUAUUACGAGGG` ; what self-splicing fitness (ln) value has been reported?
result: -3.5

query: Please give the measured self-splicing fitness (ln) for this sequence: `AGCAAGCAAUAUUACGUCGG`
result: -2.93

query: What value of self-splicing fitness (ln) has been reported for the following sequence? `AGUGAGCAAUAUUACGGAAG`
result: -2.58

query: Request the reported self-splicing fitness (ln) associated with `GUAAAGCAAUAUUACGCCCG`
result: 0.162

query: GET /values?readout=self-splicing fitness (ln)&item= `GUUGAGCAAUAUUACGAAUA`
result: -1.6

query: Give its self-splicing fitness (ln) value. Item: `ACCUAGCAAUAUUACGCAAA`
result: -2.56

query: # input sequence: `CCUUAGCAAUAUUACGCCAA` ; wanted: its self-splicing fitness (ln)
result: -2.7

query: Reported self-splicing fitness (ln), sequence `UCCUAGCAAUAUUACGAAAG` : ____
result: -2.86

query: Given the entry `AUACAGCAAUAUUACGAAUG` , report its measured self-splicing fitness (ln).
result: -2.16

query: Give its self-splicing fitness (ln) value. Item: `GUAGAGCAAUAUUACGAGAA`
result: -3.8

query: Quick one: self-splicing fitness (ln) for `UGCAAGCAAUAUUACGUAUG` ?
result: -3.05

query: Can you share its self-splicing fitness (ln)? I mean this sequence: `CGAGAGCAAUAUUACGAACA`
result: -2.54

query: Recorded self-splicing fitness (ln) of `UAGCAGCAAUAUUACGAUUA` , please.
result: -0.00343

query: Need self-splicing fitness (ln), item `AAACAGCAAUAUUACGAUUA`
result: -1.16

query: Recorded self-splicing fitness (ln) of `AUCUAGCAAUAUUACGCCGA` , please.
result: -0.962

query: Reported self-splicing fitness (ln) for `GAGAAGCAAUAUUACGAACC` : what is it?
result: -0.324

query: Query: self-splicing fitness (ln); subject: `GCCCAGCAAUAUUACGCACU`
result: -0.532

query: I'd like to know its self-splicing fitness (ln). The sequence in question is `GACAAGCAAUAUUACGGCAU`
result: -0.363

query: Could you tell me which self-splicing fitness (ln) is on file for `CGCAAGCAAUAUUACGUCAU` ?
result: -4.26

query: Look up self-splicing fitness (ln) for this sequence: `GAGAAGCAAUAUUACGGAAG`
result: -3.57

query: Query: self-splicing fitness (ln); subject: `GUACAGCAAUAUUACGGGCG`
result: -2.46

query: Can you share its self-splicing fitness (ln)? I mean this sequence: `AUCGAGCAAUAUUACGCGUC`
result: -2.85

query: Entry `ACCCAGCAAUAUUACGGCAC` has what self-splicing fitness (ln)?
result: -0.669

query: What value of self-splicing fitness (ln) has been reported for the following sequence? `ACGGAGCAAUAUUACGGCUU`
result: -3.11

query: Can you look up the measured self-splicing fitness (ln) of `AAGAAGCAAUAUUACGCUCA` for me?
result: -0.0265

query: I'd like to know its self-splicing fitness (ln). The sequence in question is `UCGGAGCAAUAUUACGGCGC`
result: -2.09

query: What value of self-splicing fitness (ln) has been reported for the following sequence? `UUAUAGCAAUAUUACGAGCA`
result: -2.02

query: Need self-splicing fitness (ln) of `CGACAGCAAUAUUACGUCAA` , thanks.
result: -1.99

query: Given the sequence `GUAGAGCAAUAUUACGGCAA` , what is its reported self-splicing fitness (ln)?
result: -2.01

query: I have this sequence here, `CGGUAGCAAUAUUACGUAGC` , and I need its recorded self-splicing fitness (ln).
result: -3.25

query: Please look up its self-splicing fitness (ln): `GAAGAGCAAUAUUACGUGUC`
result: -4.75

query: self-splicing fitness (ln) for `UCCAAGCAAUAUUACGUUGG` ?
result: -2.99

query: Could you tell me which self-splicing fitness (ln) is on file for `GUAGAGCAAUAUUACGGCAC` ?
result: -0.941

query: Query (sequence): `GCUGAGCAAUAUUACGCAGA` ; field requested: self-splicing fitness (ln)
result: -2.47

query: Sample `GCUCAGCAAUAUUACGGGGG` — what was its self-splicing fitness (ln)?
result: -3.18

query: Record request: self-splicing fitness (ln) value, item `CAGAAGCAAUAUUACGUUAA`
result: -3.62

----------
Exercise: for every item that follows, state its recorded self-splicing fitness (ln).
method.summary: self-splicing fitness, log relative to wild type (ln ratio); higher = more splicing; Tetrahymena group I intron in knt gene, E. coli kanamycin selection, DiMSum; sequences stand for … in CUCUCU…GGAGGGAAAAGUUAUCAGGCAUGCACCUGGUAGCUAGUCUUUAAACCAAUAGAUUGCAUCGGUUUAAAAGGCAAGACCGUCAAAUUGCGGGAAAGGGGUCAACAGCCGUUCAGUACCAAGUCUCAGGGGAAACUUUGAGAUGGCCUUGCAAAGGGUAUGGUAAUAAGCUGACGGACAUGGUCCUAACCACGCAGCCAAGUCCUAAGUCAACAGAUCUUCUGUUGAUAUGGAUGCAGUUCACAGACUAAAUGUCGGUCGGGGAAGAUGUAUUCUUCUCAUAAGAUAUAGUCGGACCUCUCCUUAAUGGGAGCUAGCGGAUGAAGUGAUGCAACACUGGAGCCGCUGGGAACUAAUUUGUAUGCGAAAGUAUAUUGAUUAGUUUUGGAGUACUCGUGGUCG
test.settings: 37 °C
Please reply with the value in numeric form only.

query: Please report the recorded self-splicing fitness (ln) for `GUUGAGCAAUAUUACGUUUG` .
result: -2.6

query: GET /values?readout=self-splicing fitness (ln)&item= `CAAAAGCAAUAUUACGCAUA`
result: -1.77

query: Need self-splicing fitness (ln) of `UUCAAGCAAUAUUACGCCAA` , thanks.
result: -0.538

query: What does the data say about its self-splicing fitness (ln)? Entry: `CUAAAGCAAUAUUACGUAGA`
result: -4.04

----------
method.summary: self-splicing fitness, log relative to wild type (ln ratio); higher = more splicing; Tetrahymena group I intron in knt gene, E. coli kanamycin selection, DiMSum; sequences stand for … in CUCUCU…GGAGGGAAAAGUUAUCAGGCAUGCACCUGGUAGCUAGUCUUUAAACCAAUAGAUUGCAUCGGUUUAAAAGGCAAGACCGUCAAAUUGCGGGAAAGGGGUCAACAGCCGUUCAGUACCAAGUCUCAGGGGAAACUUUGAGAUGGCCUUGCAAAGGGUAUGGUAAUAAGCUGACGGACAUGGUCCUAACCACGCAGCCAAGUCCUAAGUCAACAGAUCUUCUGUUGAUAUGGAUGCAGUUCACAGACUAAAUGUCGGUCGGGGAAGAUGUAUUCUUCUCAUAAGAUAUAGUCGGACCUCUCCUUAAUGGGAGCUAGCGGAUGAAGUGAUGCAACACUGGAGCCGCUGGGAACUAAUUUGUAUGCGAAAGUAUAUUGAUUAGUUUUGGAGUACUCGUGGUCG
test.settings: 30 °C
attribute.measured: self-splicing fitness (ln)

query: Could you share which self-splicing fitness (ln) value was measured for `UGUCAGCAAUAUUACGCAUA` ?
result: -0.485

query: Requested read-out: self-splicing fitness (ln). Entry: `AGUAAGCAAUAUUACGCGCC`
result: -0.457

query: Return reported self-splicing fitness (ln); argument: `AAAGAGCAAUAUUACGUGGG`
result: -3.99

query: May I ask what self-splicing fitness (ln) has been recorded for `UGCAAGCAAUAUUACGGUUC` ?
result: -2.93

query: # query: self-splicing fitness (ln) of entry `GUUAAGCAAUAUUACGCACC`
result: -2.89

query: Look up self-splicing fitness (ln): `CAAUAGCAAUAUUACGCAAC`
result: -3.75

query: Entry under review: `UCAAAGCAAUAUUACGGGAG` . Reported self-splicing fitness (ln)?
result: -4.12

query: Fill in: self-splicing fitness (ln) of `AACAAGCAAUAUUACGGCAC` is ___
result: -0.526

query: For the sequence shown here, `AGGAAGCAAUAUUACGGUGC` , give the reported self-splicing fitness (ln).
result: -3.36

query: Entry `GCGAAGCAAUAUUACGAAGU` : reported self-splicing fitness (ln) = ?
result: -2.99

query: Fill in the blank: the reported self-splicing fitness (ln) of `GACGAGCAAUAUUACGAUGU` is ____.
result: -3.94

query: What value of measured self-splicing fitness (ln) is listed for `GGAGAGCAAUAUUACGGCAU` ?
result: -2.03

query: What value of self-splicing fitness (ln) has been recorded for this entry: `GGCUAGCAAUAUUACGCGAU`
result: -1.74

query: Need self-splicing fitness (ln) of `CUACAGCAAUAUUACGGCAC` , thanks.
result: -3.29

query: Item `CGUAAGCAAUAUUACGGAUC` has what recorded self-splicing fitness (ln)?
result: -3.4

query: Entry `GUUUAGCAAUAUUACGGGAA` : reported self-splicing fitness (ln) = ?
result: -2.96

query: What value of measured self-splicing fitness (ln) is listed for `GUACAGCAAUAUUACGGGUU` ?
result: -3.13

query: Value lookup for self-splicing fitness (ln); key = `UCGCAGCAAUAUUACGUAAC`
result: -3.25

query: Which self-splicing fitness (ln) is listed for `GGCCAGCAAUAUUACGACUU` ?
result: -0.142

query: Data request, read-out self-splicing fitness (ln), for `GUUCAGCAAUAUUACGCUCU`
result: -0.149

query: # get_value(readout='self-splicing fitness (ln)', item= `UCCUAGCAAUAUUACGGAGA` )
result: -0.637

query: Can you share its self-splicing fitness (ln)? I mean this sequence: `AGGGAGCAAUAUUACGUAAC`
result: -2.23

query: Quick check: self-splicing fitness (ln) of `CCAGAGCAAUAUUACGGGCG` ?
result: -1.5

query: Param item = `CCGCAGCAAUAUUACGGUGA` ; retrieve measured self-splicing fitness (ln).
result: -2.46

query: Given the entry `GAGGAGCAAUAUUACGUGUU` , report its measured self-splicing fitness (ln).
result: -3.03

query: For `CAUAAGCAAUAUUACGAUUC` , what is its reported self-splicing fitness (ln)?
result: -3.25

query: Requested field: self-splicing fitness (ln). Item: `UCAAAGCAAUAUUACGACGU`
result: -0.985

query: Any idea what self-splicing fitness (ln) was measured for `GGUUAGCAAUAUUACGACGG` ?
result: -2.32

query: Reported self-splicing fitness (ln) for `CUAUAGCAAUAUUACGCAAG` : what is it?
result: -3.11

query: Please look up its self-splicing fitness (ln): `ACUAAGCAAUAUUACGGAUG`
result: -2.49

query: Quick one: self-splicing fitness (ln) for `ACCUAGCAAUAUUACGUAGA` ?
result: -2.73

query: Value lookup for self-splicing fitness (ln); key = `GUACAGCAAUAUUACGCGUU`
result: -2.61

query: Would you mind telling me what self-splicing fitness (ln) value was observed for `AUUGAGCAAUAUUACGGAAC` ?
result: -3.09

query: # input sequence: `CGACAGCAAUAUUACGUGAC` ; wanted: its self-splicing fitness (ln)
result: -3.67

query: State the recorded self-splicing fitness (ln) for this entry: `UCAGAGCAAUAUUACGCGGG`
result: -2.22

query: Return reported self-splicing fitness (ln); argument: `GGGUAGCAAUAUUACGCUGA`
result: -2.05

query: Using the record for `GCGUAGCAAUAUUACGGGAC` , report its self-splicing fitness (ln).
result: -2.1

query: Value lookup for self-splicing fitness (ln); key = `UGUCAGCAAUAUUACGGCGU`
result: -1.95

query: Name the recorded self-splicing fitness (ln) for `CCGAAGCAAUAUUACGAGAG` .
result: -3.28

query: Given the sequence `ACACAGCAAUAUUACGACCU` , what is its reported self-splicing fitness (ln)?
result: -0.472

query: Look up self-splicing fitness (ln): `CCACAGCAAUAUUACGUCGU`
result: -4.38

query: For `UAAUAGCAAUAUUACGGUUU` , what is its reported self-splicing fitness (ln)?
result: -2.92

query: Would you mind telling me what self-splicing fitness (ln) value was observed for `AUGUAGCAAUAUUACGUGAC` ?
result: -4.13

// provenance: the supplement of paper PMC7877785
